ASSAY NOTES: Saturation mutagenesis of SEQ ID NO:109: dicamba decarboxylation activity of point mutants (CO2 released), fold of backbone (Tables 7, 8, Megatable 1)
MEASUREMENT PARAMETERS: decarboxylation activity (CO2 released) of point mutant vs unmutated backbone protein; backbone SEQ ID NO: 109
ASSAY ENDPOINT: Fold Activity

// 71 (protein, listed as Burkholderia dolosa) MARAGHRAARTRQSRPGDRTMTCSCCMSAGRRRVLGAFAALAGAPKGPRAASAAQPAAASKPTRGDATARNRHSRALLPGKASASWSATKASGSGGAFAWDDTTFTFRTPAGGLGPLPMKFIDVDARLRDMDASGVDVQALSLSVPMAYWGDRPFNAKLARAWNTAASRVHVRAPDRFVVLATLPMLDATDAIDELERASELPGVRGVYMGTNIDNRDLDDPRFAPVFARIEQLGLPVFLHPQQTVGGARLGDFYLSNLLGNPFDTAIAASHLILGGVLDRHPALHFTLPHAGGALPILVGRLDAGWTVRAETRRLAHQPSGYLRRFSYDTVSHSGPVLNFLIENVGIDRLVLGSDYCFDMGYEQPVRFLDRLDLTPDERAMVIGGNAGRLLRI : Fold Activity value = 1.5 fold
